Sourced from paper PMC3861362

- Type: in vivo, human (healthy Chinese subjects)
- Run Conditions: human, plasma and urine, po, 10 mg, CLR, Mean (SD), single 10 mg oral dose, day 1, n=12

{"Given Smiles": "COc1ccc(-n2nc(C(N)=O)c3c2C(=O)N(c2ccc(N4CCCCC4=O)cc2)CC3)cc1", "Measurement Unit": "mL/min", "CL renal": 19.5}

----------
- Type: in vivo, human (healthy Chinese subjects)
- Run Conditions: human, plasma, oral, 10 mg, t½, Mean (SD), multiple doses 10 mg twice daily, day 9, n=12

{"Compound": "COc1ccc(-n2nc(C(N)=O)c3c2C(=O)N(c2ccc(N4CCCCC4=O)cc2)CC3)cc1 [apixaban]", "half-life": "10.8 h"}
